Target: CK2α (Homo sapiens, UniProt P68400)
Sequence (P68400 2-329): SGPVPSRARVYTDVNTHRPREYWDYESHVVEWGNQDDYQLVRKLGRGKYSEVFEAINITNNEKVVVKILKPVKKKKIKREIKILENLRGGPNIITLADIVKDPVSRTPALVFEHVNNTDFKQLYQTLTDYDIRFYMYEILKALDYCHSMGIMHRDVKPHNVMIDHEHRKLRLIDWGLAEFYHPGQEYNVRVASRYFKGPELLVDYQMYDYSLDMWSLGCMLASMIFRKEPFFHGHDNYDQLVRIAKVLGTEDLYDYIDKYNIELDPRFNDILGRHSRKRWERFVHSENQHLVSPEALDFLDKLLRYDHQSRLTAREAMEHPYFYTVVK
Lab note: compare IC50 with 20 nM, writing MET if less and NOT MET if equal or more.

Enquiry: I wonder whether Nc1cc(-c2cc(NCCCNC(=O)CCNCc3ccc(OC(F)(F)F)c(Cl)c3)c3cn[nH]c3c2)ccn1 [Example 184] has IC50 below 20 nM. Can you tell?
Return: MET

Enquiry: I wonder whether Cc1cn(-c2cc(NCCCNC(=O)CCNCc3ccc(-c4ccccc4)c(Cl)c3)c3cn[nH]c3c2)cn1 [Example 29] has IC50 below 20 nM. Can you tell?
Return: NOT MET

Enquiry: I wonder whether OCc1cc(CNCCCCOC2CN(c3cc(-c4cnoc4)cc4[nH]ncc34)C2)cc(C(F)(F)F)c1 [Example 120] has IC50 below 20 nM. Can you tell?
Return: NOT MET

Enquiry: I wonder whether O=C(CCNCc1ccc(-c2ccccc2)c(Cl)c1)NCCCNc1cc(C2COC2)cc2[nH]ncc12 [Example 81] has IC50 below 20 nM. Can you tell?
Return: MET

Enquiry: I wonder whether FC(F)(F)c1ccc2[nH]c(CNCCCCOCCNc3cccc4[nH]ncc34)cc2c1 [Example 94] has IC50 below 20 nM. Can you tell?
Return: NOT MET

Enquiry: I wonder whether OCCOc1cc(CNC2CC(COCCNc3cc(-c4cnns4)cc4[nH]ncc34)C2)cc(OC(F)(F)F)c1 (stereo not shown) [Example 205] has IC50 below 20 nM. Can you tell?
Return: MET

Enquiry: I wonder whether FC(F)(F)Oc1ccc(CNCCCOCCCOc2cc(-n3cnnc3)cc3[nH]ncc23)cc1Cl [Example 69] has IC50 below 20 nM. Can you tell?
Return: NOT MET

----------
Target: intracellular CK2α (Homo sapiens, UniProt P19784)
Sequence (P19784 whole entry): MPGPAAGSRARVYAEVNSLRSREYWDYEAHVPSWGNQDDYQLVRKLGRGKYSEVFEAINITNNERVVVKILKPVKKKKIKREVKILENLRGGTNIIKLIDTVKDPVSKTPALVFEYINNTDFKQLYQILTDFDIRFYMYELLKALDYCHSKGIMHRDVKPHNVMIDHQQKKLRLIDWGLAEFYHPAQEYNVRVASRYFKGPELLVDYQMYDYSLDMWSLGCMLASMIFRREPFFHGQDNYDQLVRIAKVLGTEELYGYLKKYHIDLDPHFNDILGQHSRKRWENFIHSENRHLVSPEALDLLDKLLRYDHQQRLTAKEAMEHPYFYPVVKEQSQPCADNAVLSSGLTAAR
Assay: Cell-based NanoBRET assay for inhibitor binding to intracellular CK2α
Details: HCT116 cells transiently transfected with CSNK2A2-NanoLuc fusion vector; Tracer K-5; 2 h; read-out: Assay 3: NanoBRET ™ assay for binding to intracellular CK2α
Lab note: compare IC50 with 80 nM, writing true (1) if less and false (0) if equal or more.

Enquiry: I wonder whether FC(F)(F)c1ccc2[nH]c(CNCCCCOC3CN(c4cc(-c5cnoc5)cc5[nH]ncc45)C3)cc2c1 has IC50 below 80 nM. Can you tell?
Return: false (0)

Enquiry: I wonder whether O=C(CCNCc1ccc(-c2ccccc2)c(Cl)c1)NCCCNc1cc(-c2ccncn2)cc2[nH]ncc12 has IC50 below 80 nM. Can you tell?
Return: true (1)

Enquiry: I wonder whether N#Cc1nncn1-c1cc(NCCCNC(=O)CCNCc2ccc(OC(F)(F)F)c(Cl)c2)c2cn[nH]c2c1 has IC50 below 80 nM. Can you tell?
Return: false (0)

Enquiry: I wonder whether O=C(CCNCc1ccc(-c2ccccc2)c(Cl)c1)NCCCNc1cc(N2CCOCC2)cc2[nH]ncc12 has IC50 below 80 nM. Can you tell?
Return: false (0)

Enquiry: I wonder whether O=C(CCNCc1ccc(OC(F)(F)F)c(Cl)c1)NCCC(=O)Nc1cc(-n2cnnc2)cc2[nH]ncc12 has IC50 below 80 nM. Can you tell?
Return: false (0)

Enquiry: I wonder whether CNc1n[nH]c2cc(-n3cnnc3)cc(NCCOCCCCNCc3cc(F)c(OC(F)(F)F)c(F)c3)c12 has IC50 below 80 nM. Can you tell?
Return: true (1)

Enquiry: I wonder whether C[C@@H](CCCOCCNc1cc(-c2cnns2)cc2[nH]ncc12)NCc1cc(CO)cc(OC(F)(F)F)c1 has IC50 below 80 nM. Can you tell?
Return: true (1)

----------
Could you please report measured IC50 for the items listed next?
Kindly provide the numeric value in nM only, without the unit symbol.

Enquiry: Provide IC50, tested on UniProtKB P49760, for C[C@@H](CCCOCCNc1cc(-c2cnnc(O)c2)cc2[nH]ncc12)NCc1cc(CC#N)cc(OC(F)(F)F)c1 .
Sequence (P49760 whole entry): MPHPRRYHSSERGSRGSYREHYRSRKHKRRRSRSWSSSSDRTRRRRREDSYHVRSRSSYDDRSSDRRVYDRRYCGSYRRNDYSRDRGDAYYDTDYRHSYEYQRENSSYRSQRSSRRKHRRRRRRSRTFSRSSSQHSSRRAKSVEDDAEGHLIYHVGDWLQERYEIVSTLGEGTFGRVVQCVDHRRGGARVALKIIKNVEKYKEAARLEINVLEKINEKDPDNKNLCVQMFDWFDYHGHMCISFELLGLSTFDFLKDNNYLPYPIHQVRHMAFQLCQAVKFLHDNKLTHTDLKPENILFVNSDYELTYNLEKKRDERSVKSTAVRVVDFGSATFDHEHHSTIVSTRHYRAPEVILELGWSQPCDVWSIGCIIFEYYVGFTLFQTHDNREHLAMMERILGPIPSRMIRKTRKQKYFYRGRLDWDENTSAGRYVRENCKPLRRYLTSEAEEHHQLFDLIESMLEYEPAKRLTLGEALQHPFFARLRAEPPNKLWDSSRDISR
Return: 195

Enquiry: Provide IC50, tested on UniProtKB P49760, for O=C(CCNCc1ccc(-c2ccccc2)c(Cl)c1)NCCCNc1cc(C2CCOCC2)cc2[nH]ncc12 .
Return: 8780

Enquiry: Provide IC50, tested on UniProtKB P49760, for O=C(CCNCc1ccc(-c2ccccc2)c(Cl)c1)NCCCNc1cc(-n2cnnc2)cc2[nH]ncc12 .
Return: 31.7

Enquiry: Provide IC50, tested on UniProtKB P49760, for O=C(CCNCc1ccc(-c2ccccc2)c(Cl)c1)NCCCNc1cc(-c2ccncc2)cc2[nH]ncc12 .
Return: 226

Enquiry: Provide IC50, tested on UniProtKB P49760, for O=C(CCNCc1ccc(OC(F)(F)F)c(Cl)c1)NCCCNc1cc(-c2ccncc2)nc2[nH]ncc12 .
Return: 787

Enquiry: Provide IC50, tested on UniProtKB P49760, for OCCOc1cc(CNC2CC(COCCOc3cc(-c4cnnc(O)c4)cc4[nH]ncc34)C2)cc(OC(F)(F)F)c1 (stereo not drawn) .
Return: 1210

Enquiry: Provide IC50, tested on UniProtKB P49760, for O=C(CCNCc1ccc(-c2ccccc2CO)c(Cl)c1)NCCCNc1cc(-n2cnnc2)cc2[nH]ncc12 .
Return: 40.9

Enquiry: Provide IC50, tested on UniProtKB P49760, for Cc1nncn1-c1cc(NCCCNC(=O)CCNCc2ccc(-c3ccccc3)c(Cl)c2)c2cn[nH]c2c1 .
Return: 416

Enquiry: Provide IC50, tested on UniProtKB P49760, for O=C(CCOCCCNCc1ccc(OC(F)(F)F)c(Cl)c1)Nc1cc(-n2cnnc2)cc2[nH]ncc12 .
Return: 1520

Enquiry: Provide IC50, tested on UniProtKB P49760, for FC(F)(F)c1ccc2[nH]c(CNCCCCOCCOc3cc(-n4cnnc4)cc4[nH]ncc34)cc2c1 .
Return: 1260

Enquiry: Provide IC50, tested on UniProtKB P49760, for O=C(CCNCc1ccc(OC(F)(F)F)c(Cl)c1)NCCCNc1cc(-n2cnnc2)c(Cl)c2[nH]ncc12 .
Return: 448

Enquiry: Provide IC50, tested on UniProtKB P49760, for N#Cc1cc(NCCOCCCCNCc2cc3cc(C(F)(F)F)ccc3[nH]2)c2cn[nH]c2c1 .
Return: 227

Enquiry: Provide IC50, tested on UniProtKB P49760, for O=C(Cc1cnc(CCNCc2ccc(OC(F)(F)F)c(Cl)c2)o1)Nc1cc(-n2cnnc2)cc2[nH]ncc12 .
Return: 1830

----------
Target: UniProt P68400
Sequence (P68400 2-329): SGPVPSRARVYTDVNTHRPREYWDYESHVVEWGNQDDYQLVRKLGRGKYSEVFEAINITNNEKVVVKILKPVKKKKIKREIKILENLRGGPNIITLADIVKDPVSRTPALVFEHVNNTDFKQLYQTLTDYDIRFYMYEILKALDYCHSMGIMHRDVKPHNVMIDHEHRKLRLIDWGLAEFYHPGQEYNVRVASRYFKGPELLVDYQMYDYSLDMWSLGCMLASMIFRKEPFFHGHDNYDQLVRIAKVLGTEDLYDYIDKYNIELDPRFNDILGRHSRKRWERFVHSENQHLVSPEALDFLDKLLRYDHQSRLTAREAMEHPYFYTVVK
Could you please report measured log10 of IC50 for the items listed next?
Parameter value (number): base-10 log of IC50 in nM.

Enquiry: Retrieve log10 of IC50 measured for FC(F)(F)c1ccc2[nH]c(CNCCCCOC3CN(c4cc(-c5cnoc5)cc5[nH]ncc45)C3)cc2c1 and print it.
Return: 1.04

Enquiry: Retrieve log10 of IC50 measured for c1cc2[nH]c(CNCCCCOC3CN(c4cc(-n5cnnc5)cc5[nH]ncc45)C3)cc2cc1OC1CCC1 and print it.
Return: 0.87

Enquiry: Retrieve log10 of IC50 measured for NC(=O)c1cc(NCCCNC(=O)CCNCc2ccc(-c3ccccc3)c(Cl)c2)c2cn[nH]c2c1 and print it.
Return: 1.10

Enquiry: Retrieve log10 of IC50 measured for N#Cc1[nH]ncc1-c1cc(NCCCNC(=O)CCNCc2ccc(OC(F)(F)F)c(Cl)c2)c2cn[nH]c2c1 and print it.
Return: -0.19

Enquiry: Retrieve log10 of IC50 measured for O=C(CCNCc1ccc(-c2ccccc2)c(Cl)c1)NCCCNc1cc(-c2cncnc2)cc2[nH]ncc12 and print it.
Return: 1.65

Enquiry: Retrieve log10 of IC50 measured for c1cc(-c2cc(OCCOCCCCNCc3cc4cc(OC5CCC5)ccc4[nH]3)c3cn[nH]c3c2)cnn1 and print it.
Return: 0.10

Enquiry: Retrieve log10 of IC50 measured for OCc1cc(Cl)cc(CNCCCCOC2CN(c3cc(-c4cnoc4)cc4[nH]ncc34)C2)c1 and print it.
Return: 1.52

Enquiry: Retrieve log10 of IC50 measured for Clc1ccc2nc(CNCCCCOCCNc3cc(-n4cnnc4)cc4[nH]ncc34)[nH]c2c1 and print it.
Return: 1.30

Enquiry: Retrieve log10 of IC50 measured for N#CCc1cc(CNCCCCOCCNc2cc(-n3cnnc3)cc3[nH]nnc23)cc(OC(F)(F)F)c1 and print it.
Return: 0.44

Enquiry: Retrieve log10 of IC50 measured for O=C(CCNCc1ccc(OC(F)(F)F)c(Cl)c1)NCCCNc1cc(-c2ncno2)cc2[nH]ncc12 and print it.
Return: 0.07

Enquiry: Retrieve log10 of IC50 measured for O=C(CCNCc1ccc(-c2ccccc2)c(Cl)c1)NCCCNc1cc(-n2cnnc2)cc2[nH]ncc12 and print it.
Return: -0.54

Enquiry: Retrieve log10 of IC50 measured for FC(F)(F)Oc1ccc(CNCCCCOCCNc2cc(-c3ccnnc3)cc3[nH]nnc23)cc1Cl and print it.
Return: 1.30

Just for reference, patent US20260085062A1 is where these values come from.
